Test system: DU-145 prostate
PROTOCOL DESCRIPTION: NCI-60 one-dose screen, 48 h (100 = growth as untreated, 0 = no growth, -100 = all killed)
CONDITION SUMMARY: 10 µM
Compounds without any hit were thinned out: in the full panel of roughly 83,000, 20% have a hit.
# met = growth below 50% (exclusive); not met = growth at/above 50%

{"MOLECULE": "O=[P@@]1(c2ccccc2)O[C@H](COCc2ccccc2)[C@@H](OCc2ccccc2)[C@H](OCc2ccccc2)[C@H]1O", "TARGET OF ASSAY": "DU-145 prostate", "QUALITATIVE LABEL": "not met"}

Task: For "COc1cccc(C(=O)Nc2ccc(CN3CCc4nc5cc(OC)c(OC)cc5cc43)cc2)c1" , is the recorded growth below the cut-off of 50%?
Output: met

Task: Param item: "COc1ccc(Oc2nc(NC3CCCC3)nc(Sc3ccc(OC)cc3)n2)cc1"
Output: not met

Task: Param item: "CS(=O)(=O)Nc1ccc(Nc2c3ccccc3nc3cc([N+](=O)[O-])ccc23)cc1"
Output: met

Task: Param item: "COc1cccc(Cn2c(-c3nonc3N)nc3ccccc32)c1"
Output: met

Task: Param item: CN(C)CC(O)c1ccc2cc(Br)c3ccccc3c2c1 (stereo unspecified)
Output: not met

---

Test system: 786-0 renal
PROTOCOL DESCRIPTION: NCI-60 one-dose screen, 48 h
CONDITION SUMMARY: 10 µM
Procedure: Cells are grown in 96 well plates and exposed to the test compound for 48 hours. Compounds are tested at a single concentration, which is 10^-5 M for most compounds. The reported endpoint is percent growth (GI% or GIPRCNT), where numbers from 0 - 100% represent growth inhibition, and numbers from -100% - 0 represent cell death. For example, a value of 40 represents 60% growth inhibition. A value of 0 means no net growth occurred over the course of the experiment. […]
Compounds without any hit were thinned out: in the full panel of roughly 83,000, 20% have a hit. Active and inactive are the calls of the source. The calls were made as follows: active = growth percent below 10; inactive = the rest.
Field 'call' accepts label 1 = active, label 0 = inactive

Task: Test call for this molecule, please: CCCCCCCCCCCCCCCC(=O)OC1[C@@H](OC(=O)CCCCCCCCCCCCCCC)[C@@H](C(=O)N[C@@H](CCCCN)C(=O)OC)O[C@H]1n1cnc2c(=O)[nH]c(NC(=O)C(C)C)nc21 (stereo partly drawn)
Output: label 0

Task: Param item: COc1ccc(C2=NN(C(=O)c3ccc(S(C)(=O)=O)cc3)C(c3ccc(OC)c(OC)c3)C2)c(OC)c1 (stereo not drawn)
Output: label 0

Task: Param item: "O=C(CSSCC(=O)c1ccc(Cl)cc1)c1ccc(Cl)cc1"
Output: label 0

Task: Param item: "COc1ccc(/C=C/C(=O)Nc2ccc(-c3nc4ccc(F)cc4s3)cc2)cc1"
Output: label 0

Task: Param item: "COc1cc(OC)cc(-c2cncn2-c2ccc(-c3nc4cc(OC)cc(OC)c4s3)cc2)c1"
Output: label 0

Task: Param item: "CCCCCCCNc1nc(C=O)ncc1-c1ccc(C(F)(F)F)cc1"
Output: label 0

Task: Param item: "COc1ccc(-c2nc3sc(-c4ccccc4)c(-c4ccccc4)n3c2/C=C/C(=O)c2ccccn2)cc1"
Output: label 0

Task: Param item: "Cc1nc2ccccc2c(N)c1-c1cc(C)c2c(C)nc3ccccc3c2n1"
Output: label 1

Task: Param item: "N#CCCN1C/C(=C/c2ccc(Cl)cc2)C(=O)/C(=C/c2ccc(Cl)cc2)C1"
Output: label 1

---

Test system: MDA-MB-231 breast
PROTOCOL DESCRIPTION: NCI-60 one-dose screen, 48 h (100 = growth as untreated, 0 = no growth, -100 = all killed)
CONDITION SUMMARY: 10 µM
About 83,000 compounds went through this panel and 20% of them were active in at least one assay; those are over-represented in the sample as a whole.
ENDPOINT: growth (%)
Give the value, in units of %, as a plain number.

Task: growth of "CSc1nn(-c2ccccc2)c2ncnc(Oc3ccc(C)cc3)c12" on MDA-MB-231 breast?
Output: 66.9

Task: Param item: "COc1ccc(N=C2C(=Nc3ccc(OC)cc3)N(c3ccc(N(C)C)cc3)C(=S)N2c2ccc(OC)cc2)cc1"
Output: 90.2

---

Test system: SNB-19 CNS
PROTOCOL DESCRIPTION: NCI-60 one-dose screen, 48 h (100 = growth as untreated, 0 = no growth, -100 = all killed)
CONDITION SUMMARY: 10 µM
This is part of a sample that, as a whole, favours compounds with a hit. Of some 83,000 tested, about 20% had one in any assay.
ENDPOINT: growth (%)
Give the value, in units of %, as a plain number.

{"COMPOUND": "O=C(O)CCCCSc1ncnc2nc[nH]c12", "TARGET OF ASSAY": "SNB-19 CNS", "UNITS LABEL": "%", "growth": 107}
{"COMPOUND": "COc1cc(CNc2ccccc2C(=O)N2CCN(C(=O)c3cc(-c4cc(OC)c(OC)c(OC)c4)n4nc(-c5ccccc5)cc4n3)CC2)cc(OC)c1OC", "TARGET OF ASSAY": "SNB-19 CNS", "UNITS LABEL": "%", "growth": 64.1}
{"COMPOUND": "NC1=NC(=O)C(c2ccccc2)(c2ccccc2)S1", "TARGET OF ASSAY": "SNB-19 CNS", "UNITS LABEL": "%", "growth": 105}
{"COMPOUND": "CC/C(=C(/c1ccc(OCCN(C)C)cc1)c1ccc(OC(=O)CCCCCCCCC(=O)c2c(C)[nH]c(/C=C3\\N=C(c4ccc[nH]4)C=C3OC)c2C)cc1)c1ccccc1", "TARGET OF ASSAY": "SNB-19 CNS", "UNITS LABEL": "%", "growth": 81.4}
{"COMPOUND": "O=C1/C(=C/c2ccc(Cl)cc2)SC(=Nc2ccc(Cl)cc2)N1Cc1nc2ccccc2[nH]1", "TARGET OF ASSAY": "SNB-19 CNS", "UNITS LABEL": "%", "growth": 75}

Task: growth of "O=C(N/N=C/c1ccccc1O)C(O)(c1ccccc1)c1ccccc1" on SNB-19 CNS?
Output: 66

Task: Param item: "COc1cc(-c2cc(/C=C/C(=O)c3ccc(F)c(F)c3)[nH]n2)cc(OC)c1OC"
Output: 67.8

Task: Param item: O=C1ON=[N+](c2ccc(Cc3ccc([N+]4=NOC(=O)C4CN4CCOCC4)cc3)cc2)C1CN1CCOCC1 (stereo unspecified)
Output: 86.5

Task: Param item: "CC(=O)c1nc2ccccc2n1CCN1CCN(C)CC1"
Output: 73.7

Task: Param item: "CCN(CCCCCCN1CC(=O)N(CCCCCCN(CC)Cc2ccccc2OC)CC1=O)Cc1ccccc1OC"
Output: 94.8

---

System: PC-3 prostate
PROTOCOL DESCRIPTION: NCI-60 one-dose screen, 48 h (100 = growth as untreated, 0 = no growth, -100 = all killed)
CONDITION SUMMARY: 10 µM
Compounds without any hit were thinned out: in the full panel of roughly 83,000, 20% have a hit.
Here, each record is paired with measured growth data.
Give the value, in units of %, as a plain number.

Example entries begin here.
{"COMPOUND": "COc1ccc(C2=Nc3c(C)nn(-c4ccccc4)c3NC(c3ccc(Oc4ccnc5cc(Cl)ccc45)c(OC)c3)C2)cc1 (centres undefined)", "TARGET OF ASSAY": "PC-3 prostate", "UNITS LABEL": "%", "growth": 54.8}
{"COMPOUND": "COc1ccc(Cl)cc1-n1nnc(-c2nc3ccccc3[nH]2)c1N", "TARGET OF ASSAY": "PC-3 prostate", "UNITS LABEL": "%", "growth": 89.2}
{"COMPOUND": "Cc1cc(C)c(CCc2cc(C)c(C)cc2C)cc1C", "TARGET OF ASSAY": "PC-3 prostate", "UNITS LABEL": "%", "growth": 106}

Task: Data request, read-out growth, for "Cc1ccc(CC#N)cc1C"
Output: 164

Task: Param item: COc1ccc(N2C(=O)C3c4[nH]c5ccc(OCc6ccccc6)cc5c4C4CCC(C(C)C)CC4C3C2=O)cc1 (centres undefined)
Output: 88.3

Task: Param item: "O=C(Nc1cccc(-n2cc(-c3ccncc3)c(-c3cc(O)cc(Cl)c3)n2)c1)c1cc(C(F)(F)F)cc(C(F)(F)F)c1"
Output: 21.7

Task: Param item: CCOCCOCCOCCOCCOCCOCCOCCOCCOCCO (tested in a mixture with another compound)
Output: 9.21

Task: Param item: "COc1ccc(-c2nn(-c3cccc(NC(=O)Nc4ccc(Cl)c(C(F)(F)F)c4)c3)cc2-c2ccncc2)cc1Cl"
Output: 2.84

---

Tested on: NCI/ADR-RES ovarian
PROTOCOL DESCRIPTION: NCI-60 one-dose screen, 48 h (100 = growth as untreated, 0 = no growth, -100 = all killed)
CONDITION SUMMARY: 10 µM
The panel holds about 83,000 compounds, 20% with a hit somewhere; the sample as a whole holds those more often.
ENDPOINT: growth (%)
Give the value, in units of %, as a plain number.

Example entries begin here.
{"CHEMICAL STRUCTURE": "COc1ccc(/C=C/C(C)=N/OCC(=O)O)cc1", "READING": 106}
{"CHEMICAL STRUCTURE": "Cc1occc1-c1nnc(SCC(=O)c2ccc(NC(=O)CC(C)C)cc2)o1", "READING": 104}
{"CHEMICAL STRUCTURE": "CCN(CC)CCNC(=O)c1ccc(NC(C)=O)cc1", "READING": 96.9}
{"CHEMICAL STRUCTURE": "O=C1/C(=C\\c2ccc(Cl)cc2)CN(C(=O)c2ccccc2)C/C1=C\\c1ccc(Cl)cc1", "READING": 28.3}
{"CHEMICAL STRUCTURE": "Cc1ccc(C(=O)Nc2cccc(F)c2)cc1NC(=O)C1(c2ncnc3[nH]ccc23)CC1", "READING": 92}

Task: Data request, read-out growth, for "O=C(Nc1cccc(Br)c1)c1cc(=O)[nH]c2ccccc12"
Output: 88.6
